assayTarget: STAT 6 (Mus musculus)
Construct: An STAT 6 reporter cell CI/FW4 was constructed by the above operation; endogenous in cells; host or cells: CI/FW4 (FW4 cell stably carrying the pGL2-CI/bs luciferase reporter)
Sequence (P52633 1-837): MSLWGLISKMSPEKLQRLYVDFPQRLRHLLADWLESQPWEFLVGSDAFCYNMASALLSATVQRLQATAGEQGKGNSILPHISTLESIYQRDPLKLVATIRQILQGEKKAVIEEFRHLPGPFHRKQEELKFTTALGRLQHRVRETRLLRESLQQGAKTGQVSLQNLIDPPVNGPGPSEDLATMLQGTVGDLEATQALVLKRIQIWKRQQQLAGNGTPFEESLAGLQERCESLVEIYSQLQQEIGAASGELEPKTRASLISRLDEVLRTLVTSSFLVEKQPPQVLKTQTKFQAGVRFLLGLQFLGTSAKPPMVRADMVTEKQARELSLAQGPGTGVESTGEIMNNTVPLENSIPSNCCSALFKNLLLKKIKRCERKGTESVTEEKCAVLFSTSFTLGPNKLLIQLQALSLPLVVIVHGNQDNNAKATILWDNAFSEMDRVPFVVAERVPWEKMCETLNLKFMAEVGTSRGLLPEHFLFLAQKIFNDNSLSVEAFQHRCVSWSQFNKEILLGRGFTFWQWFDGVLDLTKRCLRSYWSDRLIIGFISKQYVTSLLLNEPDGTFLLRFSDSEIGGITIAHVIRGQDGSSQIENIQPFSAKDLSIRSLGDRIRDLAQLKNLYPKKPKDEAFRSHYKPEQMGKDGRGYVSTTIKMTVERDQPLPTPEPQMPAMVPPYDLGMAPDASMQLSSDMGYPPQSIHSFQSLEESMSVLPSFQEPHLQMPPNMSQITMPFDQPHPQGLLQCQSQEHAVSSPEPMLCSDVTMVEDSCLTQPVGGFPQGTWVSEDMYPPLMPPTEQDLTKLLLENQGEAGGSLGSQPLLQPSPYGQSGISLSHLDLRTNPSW
assayOverview: STAT 6-dependent reporter activity (IL-4-stimulated CI/FW4 luciferase reporter cell)
Assay type: cell-based, human
measurementConditions: inhibition ratio at 0.1 μM compound; IL-4-stimulated CI/FW4 cell, luciferase
Where a name gives a salt, the structure may show the parent alone.
experimentalReadout: inhibition at 0.1 µM (%)

Example compounds with recorded inhibition at 0.1 µM:
[[record]]
compound = "NC(=O)c1cnc(Nc2ccc(N3CCOCC3)cc2)nc1NCc1ccccc1"
unitdescriptor = "%"
measurement = 100

[[record]]
compound = "CNC(=O)c1cnc(NCCc2cc(Cl)c(O)c(Cl)c2)nc1Nc1cccc(C)c1"
unitdescriptor = "%"
measurement = 48

[[record]]
compound = "NC(=O)c1cnc(Nc2ccc(N3CCOCC3)cc2)nc1NC1CCCCC1"
unitdescriptor = "%"
measurement = 91

[[record]]
compound = "NC(=O)c1cnc(NCCc2ccc(O)c(Cl)c2)nc1NCc1ccccc1"
unitdescriptor = "%"
measurement = 89


(1) Cc1cccc(Nc2nc(Nc3ccc(CN(C)C)cc3)ncc2C(N)=O)c1 [Production Example 9, dihydrochloride]
(2) Cc1cccc(Nc2nc(NCCc3ccc(O)c(Br)c3)ncc2C(N)=O)c1
### Prompt API: POST /compare with 1 and 2 ; response names the item with higher inhibition at 0.1 µM. To answer, give the label that identifies your chosen option.
### Response 2
(2: 67%, 1: 33%)
